- System: Staphylococcus aureus SG 511
- assay-procedure: Minimum inhibition concentration (MIC), Table 5
- Assay type: cell-based
- run-parameters: Staphylococcus aureus, SG511, Germ: Staphylococcus aureus SG 511; read-out: Minimum inhibition concentration (MIC)

molecule | MIC
O=C(Cc1ccc(C2=NCCCN2)cc1)NC1C(=O)N2C(C(=O)O)=C(CSc3nnnn3-c3ccccc3)CSC12 (stereo not shown) [Example 71] | 0.0625 to 0.078 µg/mL
CCCCc1nnc(SCC2=C(C(=O)O)N3C(=O)C(NC(=O)Cc4ccc(C(=N)N)cc4)C3SC2)o1 (stereo not shown) [Example 54] | 0.0196 to 0.0391 µg/mL
N=C(N)c1ccc(CC(=O)NC2C(=O)N3C(C(=O)O)=C(CSc4nncs4)CSC23)s1 (stereo not shown) [Example 3] | 0.0625 to 0.078 µg/mL
CCCc1nnc(SCC2=C(C(=O)O)N3C(=O)C(NC(=O)Cc4ccc(C(=N)N)cc4)C3SC2)s1 (stereo not shown) [Example 58] | 0.0196 to 0.0391 µg/mL

====

- Tested on: Staphylococcus aureus SG 511
- assay-procedure: Minimum inhibition concentration (MIC), Table 5
- Assay type: cell-based
- run-parameters: Staphylococcus aureus, SG511, Germ: Staphylococcus aureus SG 511; read-out: Minimum inhibition concentration (MIC)

compound | target-desc | MIC
O=C(COc1ccc(C2=NCCCN2)cc1)NC1C(=O)N2C(C(=O)O)=C(CSc3nnc(-c4ccccc4)o3)CSC12 (stereo not shown) | Staphylococcus aureus SG 511 | 0.0196 to 0.0391 µg/mL
CCc1nnc(SCC2=C(C(=O)O)N3C(=O)C(NC(=O)Cc4ccc(C(=N)N)cc4)C3SC2)s1 (stereo not shown) | Staphylococcus aureus SG 511 | 0.0625 to 0.078 µg/mL
O=C(Cc1ccc(C2=NCCCN2)cc1)NC1C(=O)N2C(C(=O)O)=C(CSc3nc(-c4ccccc4)cs3)CSC12 (stereo not shown) | Staphylococcus aureus SG 511 | 0.0625 to 0.078 µg/mL
O=C(COc1ccc(C2=NCCCN2)cc1)NC1C(=O)N2C(C(=O)O)=C(CSc3nncs3)CSC12 (stereo not shown) | Staphylococcus aureus SG 511 | 0.0625 to 0.078 µg/mL
Cc1nnc(SCC2=C(C(=O)O)N3C(=O)C(NC(=O)Cc4ccc(C(=N)N)cc4)C3SC2)o1 (stereo not shown) | Staphylococcus aureus SG 511 | 0.0625 to 0.078 µg/mL
O=C(Cc1ccc(C2=NCCCN2)cc1)NC1C(=O)N2C(C(=O)O)=C(CSc3nnc(-c4ccccc4)o3)CSC12 (stereo not shown) | Staphylococcus aureus SG 511 | 0.0625 to 0.078 µg/mL
N=C(N)c1ccc(CC(=O)NC2C(=O)N3C(C(=O)O)=C(CSc4ccc5ccccc5n4)CSC23)cc1 (stereo not shown) | Staphylococcus aureus SG 511 | 0.0625 to 0.078 µg/mL
CCc1nnc(SCC2=C(C(=O)O)N3C(=O)C(NC(=O)Cc4ccc(C5=NCCCN5)cc4)C3SC2)s1 (stereo not shown) | Staphylococcus aureus SG 511 | 0.0196 to 0.0391 µg/mL
N=C(N)c1ccc(OCC(=O)NC2C(=O)N3C(C(=O)O)=C(CSc4ccccn4)CSC23)cc1 (stereo not shown) | Staphylococcus aureus SG 511 | 0.0625 to 0.078 µg/mL
CCCc1nnc(SCC2=C(C(=O)O)N3C(=O)C(NC(=O)COc4ccc(C(=N)N)cc4)C3SC2)s1 (stereo not shown) | Staphylococcus aureus SG 511 | 0.0625 to 0.078 µg/mL
